Assay: Acute toxicity assay on zebrafish embryos
Assay type: in vivo, zebrafish (Danio rerio), strain AB
Details: AB, zebrafish, in vivo

{"COMPOUND": "CN(C)CCCN1C(=O)c2ccc3c4c(c(NCc5cn([C@@H]6O[C@H](CO)[C@@H](OC7O[C@H](CO)[C@@H](O)[C@H](O)[C@H]7O)[C@H](O)[C@H]6O)nn5)cc(c24)C1=O)C(=O)N(CCCN(C)C)C3=O.O=C(O)C(F)(F)F.O=C(O)C(F)(F)F (stereo partly drawn) [Compound 4, β-malt-NDI]", "UNIT_DESCRIPTOR": "µM", "LC50 at 96 hpf": 190}
